- target_or_test_system: UniProt P07861
- Sequence (P07861 whole entry): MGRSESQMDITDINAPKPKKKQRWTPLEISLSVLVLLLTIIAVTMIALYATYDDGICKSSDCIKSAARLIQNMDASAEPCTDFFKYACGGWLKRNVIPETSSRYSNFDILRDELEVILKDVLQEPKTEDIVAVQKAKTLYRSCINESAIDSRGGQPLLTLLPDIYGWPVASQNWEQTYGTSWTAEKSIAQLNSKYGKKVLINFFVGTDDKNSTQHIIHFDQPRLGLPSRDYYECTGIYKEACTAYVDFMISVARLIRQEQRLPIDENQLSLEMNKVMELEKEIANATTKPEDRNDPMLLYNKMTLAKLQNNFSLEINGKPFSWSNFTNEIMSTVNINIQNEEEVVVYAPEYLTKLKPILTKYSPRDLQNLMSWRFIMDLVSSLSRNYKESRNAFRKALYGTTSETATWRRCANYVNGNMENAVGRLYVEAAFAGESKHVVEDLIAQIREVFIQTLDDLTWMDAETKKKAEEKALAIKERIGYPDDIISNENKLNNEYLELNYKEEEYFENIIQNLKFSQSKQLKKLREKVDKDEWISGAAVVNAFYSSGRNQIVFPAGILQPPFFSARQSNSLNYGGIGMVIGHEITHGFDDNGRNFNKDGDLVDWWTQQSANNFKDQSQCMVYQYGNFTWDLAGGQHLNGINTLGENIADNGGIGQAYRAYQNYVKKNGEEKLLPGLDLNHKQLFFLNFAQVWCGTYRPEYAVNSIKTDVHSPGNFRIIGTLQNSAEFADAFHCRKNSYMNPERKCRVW
assay_readout: pIC50
# pIC50: negative log10 of molar concentration; output just the value

Solved cases below.
                               smiles_input  target_or_test_system  measured
0  C[C@@H]1CCC[C@H](NC(=O)[C@@H](S)Cc2ccccc2)C(=O)N1CC(=O)O         UniProt P07861      6.83
1  CCC[C@H]1CCC[C@H](NC(=O)[C@@H](S)Cc2ccccc2)C(=O)N1CC(=O)O         UniProt P07861      7.40
2  CC(C)C[C@H]1CCC[C@H](NC(=O)[C@@H](S)Cc2ccccc2)C(=O)N1CC(=O)O         UniProt P07861      5.78
3  CCC[C@@H]1CCC[C@H](NC(=O)[C@@H](S)Cc2ccccc2)C(=O)N1CC(=O)O         UniProt P07861      6.33

We now examine a further compound.
-- ask Please tell me the measured pIC50 for CCC[C@H]1CCC[C@H](NC(=O)[C@@H](S)Cc2ccccc2)C(=O)N1[C@@H](CC)C(=O)O ; system: UniProt P07861.
-- reply 7.07

====

- target_or_test_system: Angiotensin-converting enzyme (Oryctolagus cuniculus, UniProt P12822)
- Sequence (P12822 whole entry): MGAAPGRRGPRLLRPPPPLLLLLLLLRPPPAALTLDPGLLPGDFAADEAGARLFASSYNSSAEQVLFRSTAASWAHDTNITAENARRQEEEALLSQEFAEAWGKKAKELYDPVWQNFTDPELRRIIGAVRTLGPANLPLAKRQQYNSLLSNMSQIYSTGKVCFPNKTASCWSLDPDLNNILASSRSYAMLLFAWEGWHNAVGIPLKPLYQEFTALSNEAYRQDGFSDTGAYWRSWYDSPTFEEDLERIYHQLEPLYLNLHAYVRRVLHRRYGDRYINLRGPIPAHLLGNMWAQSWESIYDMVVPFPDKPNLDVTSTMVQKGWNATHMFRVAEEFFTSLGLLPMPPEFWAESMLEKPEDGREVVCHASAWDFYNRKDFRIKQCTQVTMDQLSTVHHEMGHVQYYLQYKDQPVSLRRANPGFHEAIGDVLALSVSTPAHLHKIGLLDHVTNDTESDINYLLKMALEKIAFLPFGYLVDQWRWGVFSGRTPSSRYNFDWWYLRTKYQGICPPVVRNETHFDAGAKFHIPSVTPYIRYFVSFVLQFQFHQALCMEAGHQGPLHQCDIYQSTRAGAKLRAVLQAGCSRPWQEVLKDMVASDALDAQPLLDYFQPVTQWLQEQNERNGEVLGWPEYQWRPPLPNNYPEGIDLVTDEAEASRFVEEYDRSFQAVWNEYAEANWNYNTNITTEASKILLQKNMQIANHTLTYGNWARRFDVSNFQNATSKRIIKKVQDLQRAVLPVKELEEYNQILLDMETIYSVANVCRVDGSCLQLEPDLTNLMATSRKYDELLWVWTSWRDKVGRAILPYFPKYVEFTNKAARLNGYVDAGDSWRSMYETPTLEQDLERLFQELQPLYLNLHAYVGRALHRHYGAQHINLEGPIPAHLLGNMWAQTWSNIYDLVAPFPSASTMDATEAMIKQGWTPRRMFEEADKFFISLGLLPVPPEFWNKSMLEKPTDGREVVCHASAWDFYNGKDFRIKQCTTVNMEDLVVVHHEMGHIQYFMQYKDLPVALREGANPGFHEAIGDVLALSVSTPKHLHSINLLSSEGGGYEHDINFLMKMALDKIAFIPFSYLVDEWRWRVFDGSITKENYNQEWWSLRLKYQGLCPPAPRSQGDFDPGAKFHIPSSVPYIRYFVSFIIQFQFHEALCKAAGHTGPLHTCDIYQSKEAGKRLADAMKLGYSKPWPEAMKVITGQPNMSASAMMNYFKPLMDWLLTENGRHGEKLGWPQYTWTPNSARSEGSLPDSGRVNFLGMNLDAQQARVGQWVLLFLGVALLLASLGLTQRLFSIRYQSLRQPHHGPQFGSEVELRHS
- test_summary: In vitro inhibition of Angiotensin I converting enzyme isolated from rabbit lung extract.
assay_readout: pIC50
# pIC50: negative log10 of molar concentration; output just the value

>>> print(df.to_string())
                               smiles_input  measured
0  O=C(N[C@H]1CCC[C@H]2CC[C@@H](C(=O)O)N2C1=O)[C@@H](S)Cc1ccccc1      8.30

-- ask Please tell me the measured pIC50 for O=C(O)CN1C(=O)[C@@H](NC(=O)[C@@H](S)Cc2ccccc2)CCC[C@@H]1CC1CC1 ; system: Angiotensin-converting enzyme (Oryctolagus cuniculus, UniProt P12822).
-- reply 7.64

-- ask Please tell me the measured pIC50 for O=C(O)CN1C(=O)[C@@H](NC(=O)[C@@H](S)Cc2ccccc2)CCC[C@@H]1CCO ; system: Angiotensin-converting enzyme (Oryctolagus cuniculus, UniProt P12822).
-- reply 7.60

-- ask Please tell me the measured pIC50 for CCC[C@H]1CCC[C@H](NC(=O)[C@@H](S)Cc2ccccc2)C(=O)N1CC(=O)O ; system: Angiotensin-converting enzyme (Oryctolagus cuniculus, UniProt P12822).
-- reply 7.96

-- ask Please tell me the measured pIC50 for CC(C)[C@@H](C(=O)O)N1CCCC[C@H](NC(=O)[C@@H](S)Cc2ccccc2)C1=O ; system: Angiotensin-converting enzyme (Oryctolagus cuniculus, UniProt P12822).
-- reply 6.04
